Assay: Intrinsic clearance in dog liver microsomes
Type: ADME, Canis lupus familiaris, Microsome
Details: read-out: CLH
REPORTED PROPERTY: microsomal CLint

C[C@]1(CS(=O)(=O)N2CCC(Oc3ccc(C(F)(F)F)cc3)CC2)NC(=O)NC1=O : < 10 µL/min/mg

* * *

Reported fraction unbound values are given for each entry in this list.
Assay: Fraction unbound in human plasma
Type: ADME, cell-free
REPORTED PROPERTY: fraction unbound

C[C@]1(CS(=O)(=O)N2CCN(c3ncc(OCc4ccc(C(F)(F)F)o4)cn3)CC2)NC(=O)NC1=O : 0.06
C[C@]1(CS(=O)(=O)N2CCC(Oc3ccc(OC(F)(F)C(F)F)cc3)CC2)NC(=O)NC1=O : 0.05
